Reported pIC50 values for a set of molecules
TARGET_DESC: CDK2/CycE (Homo sapiens)
Construct: GST
MEASUREMENT_NOTES: CDK2/CycE kinase assay (TR-FRET)
CONDITION_LABEL: avg, read-out: CDK2 avg (IC50 [mol/l])
Experimental: CDK2/CycE -inhibitory activity of compounds of the present invention was quantified employing the CDK2/CycE TR-FRET assay as described in the following paragraphs. […] The resulting mixture was incubated 1 h at 22° C. to allow the formation of complex between the phosphorylated biotinylated peptide and the detection reagents. Subsequently the amount of phosphorylated substrate was evaluated by measurement of the resonance energy transfer from the Eu-chelate to the streptavidine-XL. […]
pIC50: −log10 of the molar value.

// solved cases for pIC50 follow
MOLECULE	TARGET_DESC	pIC50
Cc1nsc(Nc2cnc(C(F)(F)F)cn2)c1C(=O)Nc1ccc(OC2CCN(CC(F)(F)F)CC2)nc1	CDK2/CycE (Homo sapiens)	≤ 4.70
CCN(CC)CCNC(=O)c1cccc(NC(=O)c2c(C)nsc2Nc2cc(C#N)ccn2)c1	CDK2/CycE (Homo sapiens)	< 4.70
Cc1nsc(Nc2cnc3ccccc3n2)c1C(=O)Nc1ccc(NC(=O)C(C)(C)C)cc1	CDK2/CycE (Homo sapiens)	< 4.70
Cc1nsc(Nc2cncc(C(F)(F)F)n2)c1C(=O)Nc1ccc(OC2CCN(C(=O)OC(C)(C)C)CC2)nc1	CDK2/CycE (Homo sapiens)	≤ 4.70
Cc1nsc(Nc2ccc(C#N)cn2)c1C(=O)Nc1ccc(OCCCNC(=O)OC(C)(C)C)nc1	CDK2/CycE (Homo sapiens)	≤ 4.70
Cc1nsc(Nc2cnc3ccccc3n2)c1C(=O)Nc1ccc(NCCN(C)C(=O)OC(C)(C)C)nc1	CDK2/CycE (Homo sapiens)	< 4.70
CCN1CC[C@H](Oc2ccc(NC(=O)c3c(C)nsc3Nc3cnc(C(F)(F)F)cn3)cn2)[C@@H](F)C1	CDK2/CycE (Homo sapiens)	< 4.70
CNS(=O)(=O)c1ccc(NC(=O)c2c(C)nsc2Nc2cc(C#N)ccn2)cc1	CDK2/CycE (Homo sapiens)	< 4.70
Cc1nsc(Nc2cnc(C(F)(F)F)cn2)c1C(=O)Nc1ccc(OC[C@H]2CCN(CCC(F)(F)F)C2)nc1	CDK2/CycE (Homo sapiens)	< 4.70

Problem: Return reported pIC50; argument: Cc1nsc(Nc2cnc(C(F)(F)F)cn2)c1C(=O)Nc1ccc(OC2CCCN(CC(F)(F)F)C2)nc1 (stereo not shown)
Solution: ≤ 4.70

====

TARGET_DESC: CDK2/CycE (Homo sapiens, UniProt P24941)
Construct: GST
MEASUREMENT_NOTES: CDK2/CycE kinase assay (TR-FRET)
CONDITION_LABEL: avg, read-out: CDK2 avg (IC50 [mol/l])
Reported IC50 values for a set of compounds

// solved cases for IC50 follow
COMPOUND	TARGET_DESC	PROPERTY_MEASURED	MEASURED
Cc1nsc(Nc2cncc(C(F)(F)F)n2)c1C(=O)Nc1ccc(OCCN(C)C(=O)OC(C)(C)C)nc1 [Example 430]	CDK2/CycE (Homo sapiens, UniProt P24941)	IC50	> 20 µM
Cc1nsc(Nc2cncc(C(F)(F)F)n2)c1C(=O)Nc1ccc(OCCCN)nc1 [Example 209]	CDK2/CycE (Homo sapiens, UniProt P24941)	IC50	> 20 µM
Cc1nsc(Nc2cnc3ccccc3n2)c1C(=O)Nc1cccc(-c2nc(C(C)(C)C)no2)c1 [Example 108]	CDK2/CycE (Homo sapiens, UniProt P24941)	IC50	≥ 20 µM

Problem: Return reported IC50; argument: Cc1nsc(Nc2cc(C#N)ccn2)c1C(=O)Nc1cccc(C(=O)OC(C)(C)C)c1 [Example 239]
Solution: > 20 µM

Problem: Return reported IC50; argument: Cc1nsc(Nc2cnc(C(F)(F)F)cn2)c1C(=O)Nc1ccc(F)c(O[C@@H]2CCN(CC(F)(F)F)C2)c1 [Example 413]
Solution: > 20 µM

Problem: Return reported IC50; argument: Cc1nsc(Nc2cnc(C(F)(F)F)cn2)c1C(=O)Nc1ccc(F)c(OC[C@@H]2CCN(CCC(F)(F)F)C2)c1 [Example 340]
Solution: > 20 µM

====

TARGET_DESC: CDK2/CycE (Homo sapiens)
Construct: GST
MEASUREMENT_NOTES: CDK2/CycE kinase assay (TR-FRET)
CONDITION_LABEL: avg, read-out: CDK2 avg (IC50 [mol/l])
pIC50: −log10 of the molar value.
Reported pIC50 values for a set of compounds

// solved cases for pIC50 follow
COMPOUND	PROPERTY_MEASURED	MEASURED
Cc1nsc(Nc2cnc(C(F)(F)F)cn2)c1C(=O)Nc1ccc(F)c(OC[C@H]2CCN(CC(F)F)C2)c1	pIC50	< 4.70
Cc1nsc(Nc2cncc(C(F)(F)F)n2)c1C(=O)Nc1ccc(C(=O)NC2CCN(CC(F)F)CC2)cc1	pIC50	< 4.70

Problem: Return reported pIC50; argument: CNS(=O)(=O)c1ccc(NC(=O)c2c(C)nsc2Nc2cnc3ccccc3n2)cc1
Solution: ≤ 4.70

Problem: Return reported pIC50; argument: Cc1nsc(Nc2cnc(C(F)(F)F)cn2)c1C(=O)Nc1ccc(OC[C@@H]2CCCN(CC(F)(F)F)C2)nc1
Solution: < 4.70

====

TARGET_DESC: CDK2/CycE (Homo sapiens, UniProt P24941)
Construct: GST; purchased ProQinase GmbH (Freiburg, Germany); host or cells: insect cells (Sf9)
MEASUREMENT_NOTES: CDK2/CycE kinase assay (TR-FRET)
Format: biochemical
CONDITION_LABEL: avg, read-out: CDK2 avg (IC50 [mol/l])
pIC50: −log10 of the molar value.
Reported pIC50 values for a set of molecules

MOLECULE	MEASURED
Cc1nsc(Nc2cc(C#N)ccn2)c1C(=O)Nc1ccc(NC2CCCNC2)nc1 (stereo not drawn)	< 4.70
Cc1nsc(Nc2cnc(C(F)(F)F)cn2)c1C(=O)Nc1ccc(F)c(OC[C@@H]2CCN(CC(F)F)C2)c1	< 4.70
Cc1nsc(Nc2cnc(C(F)(F)F)cn2)c1C(=O)Nc1ccc(OCCCN(C)CCC(F)(F)F)nc1	≤ 4.70
Cc1nsc(Nc2cncc(C(F)(F)F)n2)c1C(=O)Nc1ccc(C(=O)N2CCN(CC(F)(F)F)CC2)cc1	< 4.70

Problem: Return reported pIC50; argument: CC(=O)Nc1cc(NC(=O)c2c(C)nsc2Nc2cnccn2)ccc1F
Solution: < 4.70

Problem: Return reported pIC50; argument: Cc1nsc(Nc2cc(C#N)ccn2)c1C(=O)Nc1ccc(Oc2cccnc2)nc1
Solution: ≤ 4.70

Problem: Return reported pIC50; argument: CCCN1CC[C@@H](Oc2ccc(NC(=O)c3c(C)nsc3Nc3cnc(C(F)(F)F)cn3)cn2)[C@@H](F)C1
Solution: < 4.70

Problem: Return reported pIC50; argument: Cc1nsc(Nc2cnc(C(F)(F)F)cn2)c1C(=O)Nc1ccc(F)c(OCC2CCN(CCC(F)(F)F)CC2)c1
Solution: < 4.70

Problem: Return reported pIC50; argument: Cc1nsc(Nc2cnc(C(F)(F)F)cn2)c1C(=O)Nc1ccc(OCC2CCN(CC(F)F)C2)nc1 (stereo not drawn)
Solution: ≤ 4.70

====

System: HeLa
MEASUREMENT_NOTES: Proliferation assay (crystal violet), HeLa
Format: cell-based
CONDITION_LABEL: Homo sapiens, HeLa, 96 h, HeLa cells; 4 days incubation; crystal violet staining; read-out: IC50 inhibition of proliferation, HeLa
PROPERTY_MEASURED: IC50 (nM)

COMPOUND	UNIT_OF_MEASURE	IC50
Cc1nsc(Nc2ccc(C#N)cn2)c1C(=O)Nc1cccc(S(C)(=O)=O)c1 [Example 150]	nM	2800

I. Cc1nsc(Nc2cnc3ccccc3n2)c1C(=O)Nc1cccc(C(=O)N2CCN(C(=O)c3ccccc3)CC2)c1 [Example 88]
II. Cc1nsc(Nc2cncc(C(F)(F)F)n2)c1C(=O)Nc1ccc(OC2CCN(CCF)CC2)c(F)c1 [Example 223]
Problem: Input pair: I , II . Output: entry with lower IC50. In your reply, give the label of the chosen option.
Solution: II
(II: 760 nM, I: 10000 nM)

a. Cc1nsc(Nc2cnc3ccccc3n2)c1C(=O)Nc1cccc(C(=O)NC(C)(C)C)c1 [Example 53]
b. Cc1nsc(Nc2cnc3ccccc3n2)c1C(=O)Nc1ccc(NC2CCN(C(=O)OC(C)(C)C)CC2)nc1 [Example 234]
Problem: Higher IC50 between a and b ? In your reply, give the label of the chosen option.
Solution: b

====

TARGET_DESC: human kinase Mps-1 (Homo sapiens, UniProt P33981)
Construct: N-terminally GST-tagged human full length recombinant Mps-1 kinase; GST (N)
Sequence (P33981 whole entry): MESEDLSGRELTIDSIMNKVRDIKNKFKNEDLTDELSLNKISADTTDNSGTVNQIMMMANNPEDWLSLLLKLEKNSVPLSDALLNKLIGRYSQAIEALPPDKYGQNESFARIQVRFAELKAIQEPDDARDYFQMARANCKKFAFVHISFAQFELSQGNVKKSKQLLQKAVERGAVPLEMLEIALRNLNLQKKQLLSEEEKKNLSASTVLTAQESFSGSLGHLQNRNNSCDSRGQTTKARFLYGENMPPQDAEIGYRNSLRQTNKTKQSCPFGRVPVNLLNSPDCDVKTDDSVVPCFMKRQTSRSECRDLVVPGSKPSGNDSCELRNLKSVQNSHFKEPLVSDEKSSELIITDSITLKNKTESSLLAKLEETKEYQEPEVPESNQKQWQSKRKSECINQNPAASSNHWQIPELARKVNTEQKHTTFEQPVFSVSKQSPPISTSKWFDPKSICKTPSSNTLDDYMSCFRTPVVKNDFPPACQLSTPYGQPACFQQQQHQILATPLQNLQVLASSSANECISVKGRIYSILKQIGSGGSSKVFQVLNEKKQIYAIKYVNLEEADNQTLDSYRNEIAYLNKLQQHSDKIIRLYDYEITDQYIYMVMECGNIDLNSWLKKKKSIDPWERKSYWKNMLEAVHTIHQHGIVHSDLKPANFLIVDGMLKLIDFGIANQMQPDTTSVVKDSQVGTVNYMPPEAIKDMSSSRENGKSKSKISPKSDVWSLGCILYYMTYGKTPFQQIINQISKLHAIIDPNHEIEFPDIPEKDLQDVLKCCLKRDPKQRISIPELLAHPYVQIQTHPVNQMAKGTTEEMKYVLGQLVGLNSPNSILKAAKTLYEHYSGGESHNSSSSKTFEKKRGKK
MEASUREMENT_NOTES: Mps-1 kinase assay (TR-FRET)
CONDITION_LABEL: Mps-1 TR-FRET kinase assay; avg; read-out: Mps1 avg (IC50 [mol/l])
PROPERTY_MEASURED: IC50

// solved cases for IC50 follow
COMPOUND	TARGET_DESC	IC50
Cc1nsc(Nc2cnc(C(F)(F)F)cn2)c1C(=O)Nc1ccc(OCC2CCN(C(=O)OC(C)(C)C)CC2)nc1	human kinase Mps-1 (Homo sapiens, UniProt P33981)	> 20 µM
Cc1nsc(Nc2cnc3ccccc3n2)c1C(=O)Nc1cccc(NS(=O)(=O)C2CCN(C(=O)OC(C)(C)C)C2)c1 (stereo not shown)	human kinase Mps-1 (Homo sapiens, UniProt P33981)	> 20 µM
Cc1nsc(Nc2cnccn2)c1C(=O)Nc1ccc(OCCCN)nc1	human kinase Mps-1 (Homo sapiens, UniProt P33981)	≥ 20 µM

Problem: Return reported IC50; argument: Cc1nsc(Nc2cnc(C(F)(F)F)cn2)c1C(=O)Nc1ccc(OCC2CCN(CCF)C2)nc1 (stereo not shown)
Solution: ≥ 20 µM

Problem: Return reported IC50; argument: Cc1nsc(Nc2cnc(C(F)(F)F)cn2)c1C(=O)Nc1ccc(F)c(OC2CCN(CC(F)(F)F)C2)c1 (stereo not shown)
Solution: ≥ 20 µM

Problem: Return reported IC50; argument: Cc1nsc(Nc2cnc(C(F)(F)F)cn2)c1C(=O)Nc1ccc(OC2CCN(CC(F)(F)F)CC2)c(F)c1
Solution: > 20 µM

Problem: Return reported IC50; argument: Cc1nsc(Nc2cc(C#N)ccn2)c1C(=O)Nc1cccc(C(=O)NC(C)C)c1
Solution: > 20 µM
